Origin of measurements: patent US20110053953A1

target: human mGluR2 (Homo sapiens, UniProt Q14416); construct: If the GTPgammaS assay was used: nothing is fused; test: mGluR2 potentiator functional assays (FLIPR calcium mobilization or [35S]-GTPγS binding; not stated which); details: active in assays described herein; allosteric activator (potentiator) activity at mGluR2, assay not specified
Sequence (Q14416 19-819 limits assumed): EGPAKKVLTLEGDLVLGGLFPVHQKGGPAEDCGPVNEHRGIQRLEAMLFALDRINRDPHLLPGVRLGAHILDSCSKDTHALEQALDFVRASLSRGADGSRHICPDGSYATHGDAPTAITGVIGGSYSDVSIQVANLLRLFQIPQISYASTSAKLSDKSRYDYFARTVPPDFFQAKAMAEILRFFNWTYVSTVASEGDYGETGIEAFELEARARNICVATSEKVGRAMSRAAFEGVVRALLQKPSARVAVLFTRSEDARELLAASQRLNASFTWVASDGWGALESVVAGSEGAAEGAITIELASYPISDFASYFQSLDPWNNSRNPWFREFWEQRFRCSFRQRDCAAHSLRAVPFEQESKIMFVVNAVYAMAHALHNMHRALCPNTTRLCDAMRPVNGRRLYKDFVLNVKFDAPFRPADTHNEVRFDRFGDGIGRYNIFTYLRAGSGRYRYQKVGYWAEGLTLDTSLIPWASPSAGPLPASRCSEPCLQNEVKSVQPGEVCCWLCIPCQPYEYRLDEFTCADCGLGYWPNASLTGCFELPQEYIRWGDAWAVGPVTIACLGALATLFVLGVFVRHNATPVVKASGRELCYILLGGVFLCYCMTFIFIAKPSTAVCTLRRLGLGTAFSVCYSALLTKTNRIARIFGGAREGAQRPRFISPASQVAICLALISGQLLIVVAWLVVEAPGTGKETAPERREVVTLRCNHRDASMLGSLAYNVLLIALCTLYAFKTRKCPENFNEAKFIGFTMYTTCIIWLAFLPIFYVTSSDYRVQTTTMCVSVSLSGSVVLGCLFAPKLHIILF
Entries annotated with measured EC50
MEASUREMENT NAME: EC50 (nM)

Cc1nc(-c2cccc(N(S(C)(=O)=O)S(C)(=O)=O)c2)cc2c1C(=O)N(Cc1ccc(OC(F)(F)F)cc1)C2 ... 160
Cc1nc(-c2cccc(NC=O)c2)cc2c1C(=O)N(CC1CC1)C2 ... 670
Cc1nc(-c2cccc(NS(C)(=O)=O)c2)cc2c1C(=O)N(Cc1ccc(OC(F)(F)F)cc1)C2 ... 1330
